Sourced from patent US20240209014A1

Assay: Kinetic solubility assay
Type: physicochemical
Settings: 25 °C, pH 7.4, aqueous buffer, kinetic from dmso stock, K.S. 7.4 buffer, dose conc 200 μM, 25±2° C., read-out: Kinetic Solubility pH = 7.4
Description: Solubility of the compounds of the invention was assessed using kinetic solubility assay and compared to solubility of butenyl spinosyn. Stock solutions of spinosyn compounds were prepared in DMSO at mM concentration). […] The concentrtions of tested compounds in the filtered samples were analyzed by HPLC analysis calibrated by a standard curve generated by injection of 3 standard solutions of the relevant compound with concentrations of 1, 20, 200 μM.
measured.property: solubility kinetic at 24 h

{"compound": "CC/C=C/[C@H]1CCC[C@H](OC2CCC([N+](C)(C)COC(=O)OC(C)C)C(C)O2)[C@@H](C)C(=O)C2=C[C@@H]3[C@@H](C=C[C@@H]4C[C@@H](OC5OC(C)C(OC)C(OC)C5OC)C[C@@H]34)[C@@H]2CC(=O)O1 (some centres unmarked)", "measured.property": "solubility kinetic at 24 h", "observed.result": "145 µM"}
{"compound": "CC/C=C/[C@H]1CCC[C@H](OC2CCC([N+](C)(C)COC(=O)C(C)(C)C)C(C)O2)[C@@H](C)C(=O)C2=C[C@@H]3[C@@H](C=C[C@@H]4C[C@@H](OC5OC(C)C(OC)C(OC)C5OC)C[C@@H]34)[C@@H]2CC(=O)O1 (some centres unmarked)", "measured.property": "solubility kinetic at 24 h", "observed.result": "143 µM"}

* * *

Tested on: honey bees (Apis melifera carnica, Pollman 1879)
Assay: Single dose acute oral toxicity test on adult worker honey bees
Assay type: in vivo
Details: single oral dose 0.078 nmol/bee, 48 h after application
Protocol: Toxicity of the compounds of this invention towards honey bees (Apis melifera carnica, Pollman 1879) was assessed in comparison with commercially available samples of spinosad (LGC (Dr. Ehrenstorfer); Product code: DRE-C16972830) and the naturally produced compound butenyl spinosyn alpha 1. Solutions of spinosyn compounds were prepared in 100 mM ammonium acetate, pH=5, and later diluted in 50% (500 g/L) sucrose solution in water to final concentrations. […]
Threshold-based label: % of surviving honey bees under 90% gives yes (1), % of surviving honey bees not under 90% gives no (0).

{"compound": "CC/C=C/[C@H]1CCC[C@H](OC2CCC([N+](C)(C)COC(=O)OC(C)C)C(C)O2)[C@@H](C)C(=O)C2=C[C@@H]3[C@@H](C=C[C@@H]4C[C@@H](OC5OC(C)C(OC)C(OC)C5OC)C[C@@H]34)[C@@H]2CC(=O)O1 (some centres unmarked)", "qualitative.label": "no (0)"}
{"compound": "CC[C@H]1CCC[C@H](OC2CCC([N+](C)(C)COC(=O)C(C)(C)C)C(C)O2)[C@@H](C)C(=O)C2=C[C@@H]3[C@@H](C=C[C@@H]4C[C@@H](OC5OC(C)C(OC)C(OC)C5OC)C[C@@H]34)[C@@H]2CC(=O)O1 (some centres unmarked)", "qualitative.label": "yes (1)"}
{"compound": "CC/C=C/[C@H]1CCC[C@H](OC2CCC(N(C)C)C(C)O2)[C@@H](C)C(=O)C2=C[C@@H]3[C@@H](C=C[C@@H]4C[C@@H](OC5OC(C)C(OC)C(OC)C5OC)C[C@@H]34)[C@@H]2CC(=O)O1 (stereo partly drawn) [butenyl spinosyn, Butenyl spinosyn α1, reference compound]", "qualitative.label": "yes (1)"}

* * *

system: honey bees (Apis melifera carnica, Pollman 1879); test: Single dose acute oral toxicity test on adult worker honey bees; type: in vivo; conditions: single oral dose 0.155 nmol/bee, 24 h after application
measured.property: % of surviving honey bees (%)

{"compound": "CC/C=C/[C@H]1CCC[C@H](OC2CCC([N+](C)(C)COC(=O)OC(C)C)C(C)O2)[C@@H](C)C(=O)C2=C[C@@H]3[C@@H](C=C[C@@H]4C[C@@H](OC5OC(C)C(OC)C(OC)C5OC)C[C@@H]34)[C@@H]2CC(=O)O1 (some centres unmarked)", "measured.property": "% of surviving honey bees", "unit.info": "%", "observed.result": 85}
{"compound": "CC[C@H]1CCC[C@H](OC2CCC([N+](C)(C)COC(=O)OC(C)C)C(C)O2)[C@@H](C)C(=O)C2=C[C@@H]3[C@@H](C=C[C@@H]4C[C@@H](OC5OC(C)C(OC)C(OC)C5OC)C[C@@H]34)[C@@H]2CC(=O)O1 (some centres unmarked)", "measured.property": "% of surviving honey bees", "unit.info": "%", "observed.result": 97}
{"compound": "CC[C@H]1CCC[C@H](OC2CCC([N+](C)(C)COC(=O)C(C)(C)C)C(C)O2)[C@@H](C)C(=O)C2=C[C@@H]3[C@@H](C=C[C@@H]4C[C@@H](OC5OC(C)C(OC)C(OC)C5OC)C[C@@H]34)[C@@H]2CC(=O)O1 (some centres unmarked)", "measured.property": "% of surviving honey bees", "unit.info": "%", "observed.result": 91}
{"compound": "CC/C=C/[C@H]1CCC[C@H](OC2CCC([N+](C)(C)COC(=O)C(C)(C)C)C(C)O2)[C@@H](C)C(=O)C2=C[C@@H]3[C@@H](C=C[C@@H]4C[C@@H](OC5OC(C)C(OC)C(OC)C5OC)C[C@@H]34)[C@@H]2CC(=O)O1 (some centres unmarked)", "measured.property": "% of surviving honey bees", "unit.info": "%", "observed.result": 89}
{"compound": "CC/C=C/[C@H]1CCC[C@H](OC2CCC(N(C)C)C(C)O2)[C@@H](C)C(=O)C2=C[C@@H]3[C@@H](C=C[C@@H]4C[C@@H](OC5OC(C)C(OC)C(OC)C5OC)C[C@@H]34)[C@@H]2CC(=O)O1 (stereo partly drawn) [butenyl spinosyn, Butenyl spinosyn α1, reference compound]", "measured.property": "% of surviving honey bees", "unit.info": "%", "observed.result": 42}

* * *

test: Kinetic solubility assay; format: physicochemical; conditions: 25 °C, pH 5.4, aqueous buffer, kinetic from dmso stock, K.S. 5.4 buffer, dose conc 200 μM, 25±2° C., read-out: Kinetic Solubility pH = 5.4

{"molecule": "CC/C=C/[C@H]1CCC[C@H](OC2CCC([N+](C)(C)COC(=O)OC(C)C)C(C)O2)[C@@H](C)C(=O)C2=C[C@@H]3[C@@H](C=C[C@@H]4C[C@@H](OC5OC(C)C(OC)C(OC)C5OC)C[C@@H]34)[C@@H]2CC(=O)O1 (some centres unmarked) [Compound J7]", "solubility kinetic at 24 h [µM]": 192}
{"molecule": "CC/C=C/[C@H]1CCC[C@H](OC2CCC([N+](C)(C)COC(=O)C(C)(C)C)C(C)O2)[C@@H](C)C(=O)C2=C[C@@H]3[C@@H](C=C[C@@H]4C[C@@H](OC5OC(C)C(OC)C(OC)C5OC)C[C@@H]34)[C@@H]2CC(=O)O1 (some centres unmarked) [Compound J1A]", "solubility kinetic at 24 h [µM]": 189}

* * *

Listed next: entries and their corresponding % of surviving honey bees.
system: honey bees (Apis melifera carnica, Pollman 1879); experiment: Single dose acute oral toxicity test on adult worker honey bees; format: in vivo; conditions: single oral dose 0.078 nmol/bee, 24 h after application

{"compound": "CC[C@H]1CCC[C@H](OC2CCC([N+](C)(C)COC(=O)OC(C)C)C(C)O2)[C@@H](C)C(=O)C2=C[C@@H]3[C@@H](C=C[C@@H]4C[C@@H](OC5OC(C)C(OC)C(OC)C5OC)C[C@@H]34)[C@@H]2CC(=O)O1 (some centres unmarked) [Compound J7a]", "% of surviving honey bees, %": 96}
{"compound": "CC/C=C/[C@H]1CCC[C@H](OC2CCC(N(C)C)C(C)O2)[C@@H](C)C(=O)C2=C[C@@H]3[C@@H](C=C[C@@H]4C[C@@H](OC5OC(C)C(OC)C(OC)C5OC)C[C@@H]34)[C@@H]2CC(=O)O1 (stereo partly drawn) [butenyl spinosyn, Butenyl spinosyn α1, reference compound]", "% of surviving honey bees, %": 73}
{"compound": "CC/C=C/[C@H]1CCC[C@H](OC2CCC([N+](C)(C)COC(=O)C(C)(C)C)C(C)O2)[C@@H](C)C(=O)C2=C[C@@H]3[C@@H](C=C[C@@H]4C[C@@H](OC5OC(C)C(OC)C(OC)C5OC)C[C@@H]34)[C@@H]2CC(=O)O1 (some centres unmarked) [Compound J1A]", "% of surviving honey bees, %": 95}
{"compound": "CC/C=C/[C@H]1CCC[C@H](OC2CCC([N+](C)(C)COC(=O)OC(C)C)C(C)O2)[C@@H](C)C(=O)C2=C[C@@H]3[C@@H](C=C[C@@H]4C[C@@H](OC5OC(C)C(OC)C(OC)C5OC)C[C@@H]34)[C@@H]2CC(=O)O1 (some centres unmarked) [Compound J7]", "% of surviving honey bees, %": 96}
{"compound": "CC[C@H]1CCC[C@H](OC2CCC([N+](C)(C)COC(=O)C(C)(C)C)C(C)O2)[C@@H](C)C(=O)C2=C[C@@H]3[C@@H](C=C[C@@H]4C[C@@H](OC5OC(C)C(OC)C(OC)C5OC)C[C@@H]34)[C@@H]2CC(=O)O1 (some centres unmarked) [Compound J1Aa]", "% of surviving honey bees, %": 99}
